Assay: Pharmacokinetic Determination (Rat PK)
Assay type: in vivo
Conditions: plasma, female SD rats, IV, 3.0 mg/kg
ATTRIBUTE_MEASURED: clearance (mL/min/kg)
Write the number in mL/min/kg without appending the unit.

The examples below pair each entry with its known result.
- COMPOUND: "C[C@@H]1Cc2c([nH]c3ccccc23)[C@@H](c2c(F)cc(/C=C/C(=O)O)cc2F)N1CC12CC(C1)C2 [Example 5A]"
  ASSAY_RESULT: 1.7
- COMPOUND: "C[C@@H]1Cc2c([nH]c3ccccc23)[C@@H](c2c(F)cc(/C=C/C(=O)O)cc2F)N1CC(C)(C)F [AZD9496, reference compound]"
  ASSAY_RESULT: 1.6
- COMPOUND: "CC/C(=C(/c1ccc(/C=C/C(=O)O)cc1)c1ccc2[nH]ncc2c1)c1ccc(F)cc1Cl [ARN810, reference compound]"
  ASSAY_RESULT: 19
- COMPOUND: "C[C@@H]1Cc2c([nH]c3ccccc23)[C@@H](c2c(F)cc(/C=C/C(=O)O)cc2F)N1C12CC(C1)C2 [Example 11A]"
  ASSAY_RESULT: 1.2

Attention now turns to another entry.
Summary for this compound, C[C@@H]1Cc2c([nH]c3ccccc23)[C@@H](c2c(F)cc(/C=C/C(=O)O)cc2F)N1[C@H]1CCOC1 [Example 8A] : clearance is 5.2

====

Assay: Pharmacokinetic Determination (Rat PK)
Type: in vivo
Conditions: plasma, female SD rats, IV, 3.0 mg/kg
ATTRIBUTE_MEASURED: AUC(0-inf) (µM·h)
All answers are understood in µM·h, so give the number only.

AUC(0-inf) in this record for C[C@@H]1Cc2c([nH]c3ccccc23)[C@@H](c2c(F)cc(/C=C/C(=O)O)cc2F)N1CC12CC(C1)C2 : 67

====

Experiment: Pharmacokinetic Determination (Rat PK)
Format: in vivo
Conditions: plasma, female SD rats, PO, 10.0 mg/kg
ATTRIBUTE_MEASURED: AUC(0-inf) (µM·h)
Note: unit µM·h is implicit; provide only the numeric part.

- MOLECULE: "CC/C(=C(/c1ccc(/C=C/C(=O)O)cc1)c1ccc2[nH]ncc2c1)c1ccc(F)cc1Cl [ARN810, reference compound]"
  UNITS: "µM·h"
  AUC(0-inf): 23
- MOLECULE: "C[C@@H]1Cc2c([nH]c3ccccc23)[C@@H](c2c(F)cc(/C=C/C(=O)O)cc2F)N1C12CC(C1)C2 [Example 11A]"
  UNITS: "µM·h"
  AUC(0-inf): 283
- MOLECULE: "C[C@@H]1Cc2c([nH]c3ccccc23)[C@@H](c2c(F)cc(/C=C/C(=O)O)cc2F)N1[C@H]1CCOC1"
  UNITS: "µM·h"
  AUC(0-inf): 80
- MOLECULE: "C[C@@H]1Cc2c([nH]c3ccccc23)[C@@H](c2c(F)cc(/C=C/C(=O)O)cc2F)N1CC(C)(C)F [AZD9496, reference compound]"
  UNITS: "µM·h"
  AUC(0-inf): 179

Please examine the following record next.
Looking up C[C@@H]1Cc2c([nH]c3ccccc23)[C@@H](c2c(F)cc(/C=C/C(=O)O)cc2F)N1CC12CC(C1)C2 , I see its AUC(0-inf) listed as 185

====

# Vd per record follows
Assay: Pharmacokinetic Determination (Rat PK)
Type: in vivo
Conditions: plasma, female SD rats, IV, 3.0 mg/kg, read-out: Vdss
Provide the reading as a plain figure in L/kg.

Please review the entries below; each comes with its answer.
- COMPOUND: "CC/C(=C(/c1ccc(/C=C/C(=O)O)cc1)c1ccc2[nH]ncc2c1)c1ccc(F)cc1Cl [ARN810, reference compound]"
  Vd, L/kg: 1.2
- COMPOUND: "C[C@@H]1Cc2c([nH]c3ccccc23)[C@@H](c2c(F)cc(/C=C/C(=O)O)cc2F)N1CC12CC(C1)C2"
  Vd, L/kg: 1
- COMPOUND: "C[C@@H]1Cc2c([nH]c3ccccc23)[C@@H](c2c(F)cc(/C=C/C(=O)O)cc2F)N1CC(C)(C)F [AZD9496, reference compound]"
  Vd, L/kg: 0.8
- COMPOUND: "C[C@@H]1Cc2c([nH]c3ccccc23)[C@@H](c2c(F)cc(/C=C/C(=O)O)cc2F)N1C12CC(C1)C2 [Example 11A]"
  Vd, L/kg: 0.48

Turning now to a further record.
Looking up C[C@@H]1Cc2c([nH]c3ccccc23)[C@@H](c2c(F)cc(/C=C/C(=O)O)cc2F)N1[C@H]1CCOC1 , I see its Vd listed as 0.6

====

Test: Pharmacokinetic Determination (Rat PK)
Format: in vivo
Settings: plasma, female SD rats, PO, 10.0 mg/kg
ATTRIBUTE_MEASURED: half-life (h)
Report the value in h with no unit label.

Known half-life results, listed for orientation:
- COMPOUND: "CC/C(=C(/c1ccc(/C=C/C(=O)O)cc1)c1ccc2[nH]ncc2c1)c1ccc(F)cc1Cl [ARN810, reference compound]"
  half-life [h]: 6.9
- COMPOUND: "C[C@@H]1Cc2c([nH]c3ccccc23)[C@@H](c2c(F)cc(/C=C/C(=O)O)cc2F)N1C12CC(C1)C2 [Example 11A]"
  half-life [h]: 3.5
- COMPOUND: "C[C@@H]1Cc2c([nH]c3ccccc23)[C@@H](c2c(F)cc(/C=C/C(=O)O)cc2F)N1CC(C)(C)F [AZD9496, reference compound]"
  half-life [h]: 6.4
- COMPOUND: "C[C@@H]1Cc2c([nH]c3ccccc23)[C@@H](c2c(F)cc(/C=C/C(=O)O)cc2F)N1[C@H]1CCOC1"
  half-life [h]: 2.1

Memo: C[C@@H]1Cc2c([nH]c3ccccc23)[C@@H](c2c(F)cc(/C=C/C(=O)O)cc2F)N1CC12CC(C1)C2 , reported half-life: 8.5

====

Test: Pharmacokinetic Determination (Rat PK)
Type: in vivo
Settings: plasma, female SD rats, PO 10.0 mg/kg vs IV 3.0 mg/kg
Listing of entries alongside the reported bioavailability.
Numbers only here, please. The scale is %.

- COMPOUND: "C[C@@H]1Cc2c([nH]c3ccccc23)[C@@H](c2c(F)cc(/C=C/C(=O)O)cc2F)N1C12CC(C1)C2 [Example 11A]"
  bioavailability / %: 88
- COMPOUND: "C[C@@H]1Cc2c([nH]c3ccccc23)[C@@H](c2c(F)cc(/C=C/C(=O)O)cc2F)N1CC(C)(C)F [AZD9496, reference compound]"
  bioavailability / %: 74

Note to self: bioavailability recorded for C[C@@H]1Cc2c([nH]c3ccccc23)[C@@H](c2c(F)cc(/C=C/C(=O)O)cc2F)N1CC12CC(C1)C2 [Example 5A] was 82

bioavailability in this record for C[C@@H]1Cc2c([nH]c3ccccc23)[C@@H](c2c(F)cc(/C=C/C(=O)O)cc2F)N1[C@H]1CCOC1 [Example 8A] : 109

bioavailability for CC/C(=C(/c1ccc(/C=C/C(=O)O)cc1)c1ccc2[nH]ncc2c1)c1ccc(F)cc1Cl [ARN810, reference compound] is 117

====

Experiment: Pharmacokinetic Determination (Rat PK)
Assay type: in vivo
Settings: plasma, female SD rats, IV, 3.0 mg/kg
Description: Example D Pharmacokinetic Determination Grouping female SD rats weighing 200-300 g randomly to two groups; one group was administered with test compound at a dose of 3.0 mg/kg by intravenous injection, the other group was administered with test compound at a dose of 10.0 mg/kg by oral. […] Standard curve was plotted based on concentrations of the samples in a suitable range, the concentrations of test compounds in plasma samples were determined by using LC-MS/MS. […]
ATTRIBUTE_MEASURED: AUC(0-inf) (µM·h)
Please give a number only; it is taken to be in µM·h.

- COMPOUND: "C[C@@H]1Cc2c([nH]c3ccccc23)[C@@H](c2c(F)cc(/C=C/C(=O)O)cc2F)N1CC(C)(C)F [AZD9496, reference compound]"
  AUC(0-inf) [µM·h]: 72
- COMPOUND: "C[C@@H]1Cc2c([nH]c3ccccc23)[C@@H](c2c(F)cc(/C=C/C(=O)O)cc2F)N1C12CC(C1)C2 [Example 11A]"
  AUC(0-inf) [µM·h]: 96
- COMPOUND: "C[C@@H]1Cc2c([nH]c3ccccc23)[C@@H](c2c(F)cc(/C=C/C(=O)O)cc2F)N1[C@H]1CCOC1"
  AUC(0-inf) [µM·h]: 22

Read the next record carefully.
Summary for this compound, CC/C(=C(/c1ccc(/C=C/C(=O)O)cc1)c1ccc2[nH]ncc2c1)c1ccc(F)cc1Cl [ARN810, reference compound] : AUC(0-inf) is 5.9
